molecular target: UniProtKB Q07817; experiment: TR-FRET binding assay, GST-Bcl-XL with F-Bak peptide probe; settings: TR-FRET Binding Affinity, GST-Bcl-XL, F-Bak peptide probe
Sequence (Q07817 whole entry): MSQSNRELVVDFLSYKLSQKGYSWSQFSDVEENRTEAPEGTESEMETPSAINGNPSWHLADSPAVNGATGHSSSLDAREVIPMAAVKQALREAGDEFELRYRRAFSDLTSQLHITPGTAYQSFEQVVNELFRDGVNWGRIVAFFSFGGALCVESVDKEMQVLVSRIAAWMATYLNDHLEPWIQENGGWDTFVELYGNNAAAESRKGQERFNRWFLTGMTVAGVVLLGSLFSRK
I'd appreciate it if you could supply Ki values for the items below.
Give bare numbers, in nM.

These recorded examples may help you get a feel for the data.
molecule	unitSpec	Ki
COCCN1CCC(Nc2ccc(S(=O)(=O)NC(=O)c3ccc(N4CCN(CC5=C(c6ccc(Cl)cc6)CC(C)(C)CC5)CC4)cc3Oc3ccc4[nH]ccc4c3)cc2[N+](=O)[O-])CC1	nM	51.7
CC1(C)CCC(CN2CCN(c3ccc(C(=O)NS(=O)(=O)c4ccc(NC5CCN(C6CCOCC6)CC5)c([N+](=O)[O-])c4)c(Oc4ccc5[nH]ccc5c4)c3)CC2CO)=C(c2ccc(Cl)cc2)C1 (stereo not drawn)	nM	29.9

Turning now to a further molecule:
## Input Reported Ki for "CC1(C)CCC(CN2CCN(c3ccc(C(=O)NS(=O)(=O)c4ccc(NCCCN5CCNC(=O)C5)c([N+](=O)[O-])c4)c(Oc4ccc5[nH]ccc5c4)c3)CC2)=C(c2ccc(Cl)cc2)C1" : what is it?
## Output 137

Values from patent US9073855B2
